- study.target: Serine/threonine-protein kinase PAK 1 (Homo sapiens) (UniProt Q13153);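 further: values are mean PAK1 inhibition from the GSK PKIS kinase inhibitor set screen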
- Sequence (Q13153 whole entry): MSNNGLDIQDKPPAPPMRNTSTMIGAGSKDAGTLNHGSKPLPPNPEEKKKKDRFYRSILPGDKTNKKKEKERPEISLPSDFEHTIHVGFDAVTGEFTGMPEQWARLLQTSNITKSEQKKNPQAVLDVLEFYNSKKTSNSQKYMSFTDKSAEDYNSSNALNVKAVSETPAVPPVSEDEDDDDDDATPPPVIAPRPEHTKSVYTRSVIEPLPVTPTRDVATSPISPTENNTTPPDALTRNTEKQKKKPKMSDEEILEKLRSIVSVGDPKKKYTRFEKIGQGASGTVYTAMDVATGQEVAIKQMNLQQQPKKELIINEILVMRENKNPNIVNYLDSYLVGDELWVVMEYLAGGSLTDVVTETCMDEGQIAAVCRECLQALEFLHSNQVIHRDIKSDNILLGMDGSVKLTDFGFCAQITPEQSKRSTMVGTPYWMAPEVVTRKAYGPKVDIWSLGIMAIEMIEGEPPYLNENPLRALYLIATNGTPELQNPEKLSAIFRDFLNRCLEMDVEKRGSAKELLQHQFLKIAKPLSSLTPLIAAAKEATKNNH
- setup.conditions: at 0.1 µM
Reported inhibition values follow for various molecules
Entry rule: numbers only, all in %.

[[record]]
smiles_str = "NCc1ccc(-n2c(-c3nonc3N)nc3cnccc32)cc1"
value_measured = 12

[[record]]
smiles_str = "Fc1ccc(-c2ncn(C3CCNCC3)c2-c2ccnc(Oc3ccc4c(c3)OCO4)n2)cc1"
value_measured = 6.43

[[record]]
smiles_str = "c1ccc(Oc2ccc(Nc3ncc(-c4ccccc4)o3)cc2)cc1"
value_measured = -1.14

[[record]]
smiles_str = "NC(=O)Cc1ccccc1Oc1nccc(-c2c(-c3ccc(F)cc3)ncn2C2CCNCC2)n1"
value_measured = 4.71

[[record]]
smiles_str = "Clc1ccc(CNc2nccc(-c3cnn4ncccc34)n2)cc1"
value_measured = -2.27


stdin: Tell me its inhibition given N#Cc1ccc(Oc2nccc(-c3c(-c4ccc(F)cc4)ncn3C3CCNCC3)n2)cc1 as the entry.
stdout: 7.47

stdin: Quick one: give measured inhibition for CNC(=O)c1cncc(/C=C/c2c(C)cccc2C)c1
stdout: 0.04

stdin: Entry COc1ccc(C2=C(N3CCc4ccccc43)C(=O)NC2=O)cc1 needs its inhibition filled in; supply it.
stdout: 7.07

stdin: Return reported inhibition. Input molecule: CCC(=O)Nc1ccc(C)c(-c2ccc(C(=O)NCC3CC3)cc2)c1
stdout: 3.98

stdin: Input COc1cc2ncn(-c3cc(OCCc4ccccc4)c(C(N)=O)s3)c2cc1OC , output reported inhibition.
stdout: -1.36

stdin: Indicate the recorded inhibition value for this molecule: C/C(Nc1ccc(S(N)(=O)=O)cc1)=C1/C(=O)Nc2ccccc21
stdout: -3.4

###

- study.target: Ribosomal protein S6 kinase alpha-4 (Homo sapiens) (UniProt O75676);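 further: values are mean inhibition of MSK2, from GSK PKIS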
- Sequence (O75676 whole entry, looked up): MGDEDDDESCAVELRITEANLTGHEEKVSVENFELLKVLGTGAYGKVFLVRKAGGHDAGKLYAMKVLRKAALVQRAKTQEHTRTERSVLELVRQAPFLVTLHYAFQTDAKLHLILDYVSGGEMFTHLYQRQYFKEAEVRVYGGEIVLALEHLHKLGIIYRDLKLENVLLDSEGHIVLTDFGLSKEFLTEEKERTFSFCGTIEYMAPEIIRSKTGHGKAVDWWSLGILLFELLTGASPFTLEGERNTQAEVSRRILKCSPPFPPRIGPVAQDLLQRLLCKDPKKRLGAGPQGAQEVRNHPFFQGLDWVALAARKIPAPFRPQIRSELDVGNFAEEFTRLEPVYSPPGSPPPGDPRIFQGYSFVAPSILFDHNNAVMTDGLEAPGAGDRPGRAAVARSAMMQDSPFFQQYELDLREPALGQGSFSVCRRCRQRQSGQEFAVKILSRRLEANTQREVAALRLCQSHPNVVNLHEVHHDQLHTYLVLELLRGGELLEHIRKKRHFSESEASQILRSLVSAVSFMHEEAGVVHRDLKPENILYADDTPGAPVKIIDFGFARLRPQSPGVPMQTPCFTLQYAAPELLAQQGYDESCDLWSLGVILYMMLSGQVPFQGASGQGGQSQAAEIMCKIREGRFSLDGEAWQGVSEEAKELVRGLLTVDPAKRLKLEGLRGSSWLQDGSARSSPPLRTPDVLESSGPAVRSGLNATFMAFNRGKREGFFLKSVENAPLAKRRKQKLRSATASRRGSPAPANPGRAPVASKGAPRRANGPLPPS
- setup.conditions: at 0.1 µM
measurement.name: inhibition
The number alone won't do; follow it with the unit.

stdin: Give recorded inhibition. Clc1ccc(CNc2nccc(-c3cnn4ncccc34)n2)cc1
stdout: 1.14%

stdin: Specify inhibition for COc1cc(Nc2ncc3c(C)nc(-c4cccc(C(F)(F)F)c4)n3n2)cc(OC)c1OC and stop.
stdout: 2.89%

stdin: Tell me inhibition reported for Cc1nnc(-c2ccc(C)c(-c3ccc(C(=O)NCc4ccc(Cl)cc4)cc3)c2)o1
stdout: 3.07%

stdin: Report measured inhibition; entry is O=C(Nc1ccc(Oc2ccc3[nH]c(NC(=O)c4ccccc4)nc3c2)cc1)Nc1cc(C(F)(F)F)ccc1F
stdout: 2.16%

###

- study.target: Serine/threonine-protein kinase SIK2 (Homo sapiens)
- setup.conditions: at 1 µM
measurement.name: inhibition (%)
Report only the number, with the unit % understood.

[[record]]
compound = "O=C1NC(=O)C(c2cccc(Cl)c2)=C1Nc1ccc(Cl)c(C(=O)O)c1"
unit_abbreviation = "%"
value_measured = 4.62


stdin: Send back Serine/threonine-protein kinase SIK2 (Homo sapiens) inhibition of O=C(Nc1n[nH]c2nc(-c3ccco3)ccc12)C1CC1 only.
stdout: 3.32

stdin: Tell me its inhibition on Serine/threonine-protein kinase SIK2 (Homo sapiens): COc1cc2ncn(-c3cc(OCc4ccccc4C(F)(F)F)c(C(C)=O)s3)c2cc1OC
stdout: 7.06

stdin: GET inhibition where system = Serine/threonine-protein kinase SIK2 (Homo sapiens) and item = COc1cc(Nc2ncc3c(C)nc(-c4cccc(C(F)(F)F)c4)n3n2)cc(OC)c1OC;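 further: mean inhibition of SNF1LK2 (QIK) kinase activity, from the GSK PKIS screening panel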
stdout: 13.5
